Biological target: purified human autoBACE-2 (Homo sapiens (Human))
Sequence (Q9Y5Z0 63-473 limits assumed): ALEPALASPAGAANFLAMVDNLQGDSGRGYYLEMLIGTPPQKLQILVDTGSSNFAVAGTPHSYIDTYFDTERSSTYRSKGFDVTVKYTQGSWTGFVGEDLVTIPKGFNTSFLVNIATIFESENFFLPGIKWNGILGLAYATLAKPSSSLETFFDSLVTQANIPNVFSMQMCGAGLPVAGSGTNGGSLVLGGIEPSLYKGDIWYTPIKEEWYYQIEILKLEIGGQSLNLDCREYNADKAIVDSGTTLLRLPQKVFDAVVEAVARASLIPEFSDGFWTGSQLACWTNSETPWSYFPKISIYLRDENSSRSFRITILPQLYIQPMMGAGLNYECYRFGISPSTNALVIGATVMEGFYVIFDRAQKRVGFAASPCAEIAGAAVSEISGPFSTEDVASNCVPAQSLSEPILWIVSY
pKi: −log10 of the molar value.
Decide using pKi: a value greater than or equal to 7 is Met, a smaller one is Not met.

Smi | Class Label
Cc1nc(C(=O)Nc2ccc3c(c2)[C@@]2(C)NC(=N)N(C)S(=O)(=O)[C@@H]2CCO3)c(C)o1 | Not met
CN1C(=N)N[C@]2(C)c3cc(NC(=O)c4ccc(C#N)cn4)ccc3CCC[C@H]2S1(=O)=O | Not met
C#CCOc1ccc(C(=O)Nc2ccc3c(c2)[C@@]2(C)NC(=N)N(C)S(=O)(=O)[C@@H]2CCO3)nc1 | Not met
CN1C(=N)N[C@]2(C)c3cc(NC(=O)c4ccc(Cl)cn4)ccc3CCC[C@@H]2S1(=O)=O | Met
CN1C(=N)N[C@]2(C)c3cc(NC(=O)c4ccc(OC(F)F)cn4)ccc3OCC[C@@H]2S1(=O)=O | Met
COc1cnc2c(Nc3ccc4c(c3)[C@@]3(C)NC(=N)N(C)S(=O)(=O)[C@H]3CCC4)ccnc2n1 | Not met

###

Target: soluble human BACE1 catalytic domain (Homo sapiens (Human))
Sequence (P56817 75-416): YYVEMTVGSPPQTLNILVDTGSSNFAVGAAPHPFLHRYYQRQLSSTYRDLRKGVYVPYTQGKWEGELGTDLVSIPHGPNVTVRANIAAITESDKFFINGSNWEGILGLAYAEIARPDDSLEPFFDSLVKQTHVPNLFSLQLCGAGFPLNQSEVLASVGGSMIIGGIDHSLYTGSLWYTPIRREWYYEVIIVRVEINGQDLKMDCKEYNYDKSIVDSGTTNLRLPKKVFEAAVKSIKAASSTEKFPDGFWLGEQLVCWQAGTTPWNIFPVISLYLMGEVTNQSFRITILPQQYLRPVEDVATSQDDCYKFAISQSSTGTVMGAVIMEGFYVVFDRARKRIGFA
pKi: −log10 of the molar value.
Readout Kind: pKi

Smi | Readout Kind | Val
CN1C(=N)N[C@]2(C)c3cc(NC(=O)c4ncc(Cl)cc4Cl)ccc3OCC[C@@H]2S1(=O)=O | pKi | 8.70
CN1C(=N)N[C@]2(C)c3cc(NC(=O)c4ccc(Cl)cn4)ccc3OCC[C@H]2S1(=O)=O | pKi | 7.14
COCC(=O)Nc1ccc2c(c1)[C@@]1(C)NC(=N)N(C)S(=O)(=O)[C@@H]1CCO2 | pKi | 5.87
CN1C(=N)N[C@]2(C)c3cc(NC(=O)c4ccc(OC(F)(F)F)cn4)ccc3OCC[C@@H]2S1(=O)=O | pKi | 8.10
COc1cnc2c(Nc3ccc4c(c3)[C@@]3(C)NC(=N)N(C)S(=O)(=O)[C@H]3CCO4)nccc2c1 | pKi | 7.24
CN1C(=N)N[C@]2(C)c3cc(NC(=O)c4ccc(C#N)cn4)ccc3CCC[C@H]2S1(=O)=O | pKi | 7.22
Cc1cc(C#N)cnc1C(=O)Nc1ccc2c(c1)[C@@]1(C)NC(=N)N(C)S(=O)(=O)[C@H]1CCC2 | pKi | 7.72
Cc1cc(F)cnc1C(=O)Nc1ccc2c(c1)[C@@]1(C)NC(=N)N(C)S(=O)(=O)[C@@H]1CCO2 | pKi | 6.88
COc1cnc(C(=O)Nc2ccc3c(c2)[C@@]2(C)NC(=N)N(C)S(=O)(=O)[C@H]2CCC3)cn1 | pKi | 7.77
COc1cnc(C(=O)Nc2ccc3c(c2)[C@@]2(C)NC(=N)N(C)S(=O)(=O)[C@H]2CCC3)c(C)n1 | pKi | 7.32
COc1cnc(C(=O)Nc2ccc3c(c2)[C@@]2(C)NC(=N)N(C)S(=O)(=O)[C@H]2CCC3)c(C)c1 | pKi | 7.57
C#CCOc1ccc(C(=O)Nc2ccc3c(c2)[C@@]2(C)NC(=N)N(C)S(=O)(=O)[C@@H]2CCO3)nc1 | pKi | 7.60
COc1cc(Br)cnc1C(=O)Nc1ccc2c(c1)[C@@]1(C)NC(=N)N(C)S(=O)(=O)[C@H]1CCC2 | pKi | 7.74
CN1C(=N)N[C@]2(C)c3cc(NC(=O)c4ncc(Cl)cc4F)ccc3CCC[C@@H]2S1(=O)=O | pKi | 8.15
CN1C(=N)N[C@]2(C)c3cc(NC(=O)c4ccc(C(F)(F)F)cn4)ccc3OCC[C@@H]2S1(=O)=O | pKi | 7.96
CN1C(=N)N[C@]2(C)c3cc(NC(=O)c4ccc(C#N)cn4)ccc3OCC[C@H]2S1(=O)=O | pKi | 7.33
COc1cnc(C(=O)Nc2ccc3c(c2)[C@@]2(C)NC(=N)N(C)S(=O)(=O)[C@@H]2CCO3)cn1 | pKi | 6.23
CN1C(=N)N[C@]2(C)c3cc(NC(=O)c4ccc(Cl)cn4)ccc3CCC[C@@H]2S1(=O)=O | pKi | 8.15
CN1C(=N)N[C@]2(C)c3cc(NC(=O)c4ccc(OC(F)F)cn4)ccc3OCC[C@@H]2S1(=O)=O | pKi | 8.30
CN1C(=N)N[C@]2(C)c3cc(NC(=O)c4ccc(C#N)cn4)ccc3CCC[C@@H]2S1(=O)=O | pKi | 8.40
CN1C(=N)N[C@]2(C)c3cc(NC(=O)c4ccc(OC(F)F)cn4)ccc3CCC[C@@H]2S1(=O)=O | pKi | 8.00
Cc1ccc(C(=O)Nc2ccc3c(c2)[C@@]2(C)NC(=N)N(C)S(=O)(=O)[C@H]2CCO3)nc1 | pKi | 7.74
Cc1nc(C(=O)Nc2ccc3c(c2)[C@@]2(C)NC(=N)N(C)S(=O)(=O)[C@@H]2CCO3)c(C)o1 | pKi | 6.58
Cc1ccc(C(=O)Nc2ccc3c(c2)[C@@]2(C)NC(=N)N(C)S(=O)(=O)[C@H]2CCC3)nc1 | pKi | 7.35
CN1C(=N)N[C@]2(C)c3cc(NC(=O)c4ccc(F)cn4)ccc3OCC[C@@H]2S1(=O)=O | pKi | 8.00
COc1cnc2c(Nc3ccc4c(c3)[C@@]3(C)NC(=N)N(C)S(=O)(=O)[C@H]3CCO4)ccnc2c1 | pKi | 6.39
CN1C(=N)N[C@]2(C)c3cc(NC(=O)c4ccc(OC(F)(F)F)cn4)ccc3CCC[C@@H]2S1(=O)=O | pKi | 7.85
CCCNc1ccc2c(c1)[C@@]1(C)NC(=N)N(C)S(=O)(=O)[C@H]1CCO2 | pKi | 6.04
CN1C(=N)N[C@]2(C)c3cc(NC(=O)c4ncc(Cl)cc4F)ccc3OCC[C@@H]2S1(=O)=O | pKi | 8.40
